ASSAYED TARGET: Cyclin-dependent kinase 2 (Homo sapiens) (UniProt P24941)
STATED CONDITIONS: Compound concentration 20.0 uM
Description: Thermal Shift Assay. Domain: start/stop: M1-L298
Residues, ends and D or L forms follow the SMILES beside them.
MEASURED PROPERTY: ΔTm (°C)
State just the number; it will be interpreted in °C.

CCOCC1(COCC)CCC(c2n[nH]cc2CN(C)CCNC)CC1	-0.06
CN1CCN2c3c(cccc31)[C@@H]1CN(CCCC(=O)c3ccc(F)cc3)CC[C@@H]12	-0.01
CC(=O)N[C@@H](C)C(=O)N[C@@H](CCC(=O)O)C(=O)N[C@H](C(=O)N[C@@H](C=O)CC(=O)O)C(C)C	-0.37
CN(C(=O)CCCOc1ccc2[nH]c(=O)ccc2c1)C1CCCCC1	0.09
CC(=O)N[C@@H](CC(=O)O)C(=O)N[C@@H](CCC(=O)O)C(=O)N[C@H](C(=O)N[C@@H](CC(=O)O)C(=O)CCl)C(C)C	-0.35

Task item: So what does the record say about ΔTm for COc1ccc(-n2c(SCCCN3C(=O)c4cccc5cccc(c45)C3=O)nnc2-c2ccncc2)cc1 ?
Reply: -0.02

Task item: So what does the record say about ΔTm for O=C(CCl)Nc1ccc(S(=O)(=O)c2ccc(NC(=O)CCl)cc2)cc1 ?
Reply: 0

Task item: So what does the record say about ΔTm for CCC[C@@H]1CNCc2c1[nH]c(=O)c(C#N)c2N1CCC2(CC1)CC2 ?
Reply: 0.24

Task item: So what does the record say about ΔTm for CC(=O)N[C@@H](CC(C)C)C(=O)N[C@@H](CCC(=O)O)C(=O)N[C@@H](Cc1cnc[nH]1)C(=O)N[C@H](C=O)CC(=O)O (Ac-LEHD-aldehyde) ?
Reply: 0.05

Task item: So what does the record say about ΔTm for O=C(O)c1cccc(-c2ccc(-c3cn(C(=O)N4CCCCC4Cc4ccccc4)nn3)cc2)c1 (stereo not drawn) ?
Reply: -0.87

Task item: So what does the record say about ΔTm for Cc1cc(S(C)(=O)=O)c(S(C)(=O)=O)cc1C(=O)NC(=N)N ?
Reply: 0.23

Task item: So what does the record say about ΔTm for CC(C)[C@@H]1NC(=O)[C@H](Cc2ccc(O)cc2)NC(=O)[C@@H](CC(=O)O)NC(=O)S[C@@H](C(=O)O)NC(=O)[C@H]([C@H](C)O)NC(=O)[C@H](Cc2ccc(O)cc2)NC(=O)[C@H](Cc2c[nH]c3ccccc23)NC(=O)[C@H](CCCNC(=N)N)NC(=O)[C@H](Cc2c[nH]c3ccccc23)NC(=O)[C@H](C)NC(=O)[C@H](CO)NC(=O)[C@H](CCCNC(=N)N)NC(=O)[C@H]([C@H](C)O)NC(=O)[C@H](CC(N)=O)NC(=O)[C@H](Cc2ccc(O)cc2)NC1=O ?
Reply: 0.11

Task item: So what does the record say about ΔTm for O=C(c1cc(Cl)c(O)c(Cl)c1)N1CS(=O)(=O)c2ccccc21 ?
Reply: 0.15

Task item: So what does the record say about ΔTm for CNC(=O)N1CCc2c(c(N3CCCc4cc(-c5cnn(C)c5)c(C(F)F)cc43)nn2C2CCOCC2)C1 ?
Reply: 0.2

Task item: So what does the record say about ΔTm for CCCCCCCC(=O)N[C@H](CN1CCCC1)[C@H](O)c1ccc2c(c1)OCCO2 ?
Reply: -0.06

Task item: So what does the record say about ΔTm for O=C(O)CCNC(=S)NCCCC[C@H](NS(=O)(=O)c1cccc(F)c1)C(=O)N[C@@H](Cc1c[nH]c2ccccc12)C(=O)NC1CCC1 ?
Reply: -0.16

Task item: So what does the record say about ΔTm for COc1cc2c(NC3CCN(C)CC3)cc(-c3ccc(C)o3)nc2cc1OCCCN1CCCC1 ?
Reply: 0.69

---

ASSAYED TARGET: Transcription intermediary factor 1-alpha (Homo sapiens)
STATED CONDITIONS: Compound concentration 20.0 uM
Use -0.5 °C as the dividing line for ΔTm, with the line itself on the met side and lower values as not met.

Reference set, count: 8
CC(C)c1cnc(CSc2cnc(NC(=O)C3CCNCC3)s2)o1	not met
COc1cc([C@@H]2Oc3c(O)cc([C@H]4Oc5cc(O)cc(O)c5C(=O)[C@@H]4O)cc3[C@H]2CO)ccc1O	met
O=C(O)CCNc1cc(N2CCc3ccccc3CC2)nc(-c2ccccn2)n1	met
CC#CCn1c(N2CCC[C@@H](N)C2)nc2c1c(=O)n(Cc1nc(C)c3ccccc3n1)c(=O)n2C	not met
O=C(N(CCc1ccccc1)C1CCCCC1)n1ncc(-c2ccc(OC(F)(F)F)cc2)n1	met
Cc1c(NC(=O)c2cc(C(N)=O)nc3cc(F)ccc23)c(C(F)(F)F)nn1Cc1ccc(C#N)cc1	met
N=C(N)SCc1ccc(CN2C(=O)C(=O)c3cc(C(F)(F)F)ccc32)cc1	met
N#Cc1cc(F)cc(Oc2ccc3c(c2C(F)F)[C@@H](O)C(F)(F)S3(=O)=O)c1	not met

Task item: Determine whether measured ΔTm meets or exceeds -0.5 °C for CN(Cc1ccccc1)c1ccc2cc(C(=O)O)c(=O)oc2c1
Reply: met

Task item: Determine whether measured ΔTm meets or exceeds -0.5 °C for COc1ccc([C@@H]2CNC(=O)C2)cc1OC1CCCC1
Reply: met

Task item: Determine whether measured ΔTm meets or exceeds -0.5 °C for O=C(O)/C(S)=C/c1ccc(I)cc1
Reply: met

Task item: Determine whether measured ΔTm meets or exceeds -0.5 °C for CCN1C(C)(C)CC(Oc2ccc(C(=O)Nc3ccc(NC(=O)Nc4cc(C(C)(C)C)on4)cc3)nc2)CC1(C)C
Reply: met

Task item: Determine whether measured ΔTm meets or exceeds -0.5 °C for COc1ccc(C(=O)C2CCN(CC(=O)N(Cc3nc4c(c(=O)[nH]3)COCC4)CC3CC3)CC2)cc1
Reply: met

Task item: Determine whether measured ΔTm meets or exceeds -0.5 °C for COc1ccc2c(c1)OC(C)(C)C(c1ccccc1)C2c1ccc(OCCN2CCCC2)cc1 (configuration not stated)
Reply: not met

Task item: Determine whether measured ΔTm meets or exceeds -0.5 °C for O=C(NCCc1cc(C(=O)NO)no1)c1ccc(Cl)c(Cl)c1
Reply: not met

Task item: Determine whether measured ΔTm meets or exceeds -0.5 °C for CC#C[C@]1(O)CC[C@H]2[C@@H]3CCC4=CC(=O)CCC4=C3[C@@H](c3ccc(N(C)C)cc3)C[C@@]21C
Reply: not met

Task item: Determine whether measured ΔTm meets or exceeds -0.5 °C for CCN(CCN(C)C)C(=O)CNCc1cc(C(N)=O)ccn1
Reply: not met

Task item: Determine whether measured ΔTm meets or exceeds -0.5 °C for CS(=O)(=O)N1CCN(C(=O)c2cnc3ccc(F)cc3c2-c2ccc(C3(C#N)CC3)cc2)CC1
Reply: met

Task item: Determine whether measured ΔTm meets or exceeds -0.5 °C for CCNC(=O)NCCSC[C@H]1O[C@@H](n2cnc3c(N)ncnc32)[C@H](O)[C@@H]1O
Reply: not met

Task item: Determine whether measured ΔTm meets or exceeds -0.5 °C for COc1cc(Nc2ncc(F)c(Nc3ccc4c(n3)NC(=O)C(C)(C)O4)n2)cc(OC)c1OC
Reply: met

---

The entries below are paired with their reported ΔTm.
ASSAYED TARGET: Aurora kinase A (Homo sapiens)
Sequence (whole entry): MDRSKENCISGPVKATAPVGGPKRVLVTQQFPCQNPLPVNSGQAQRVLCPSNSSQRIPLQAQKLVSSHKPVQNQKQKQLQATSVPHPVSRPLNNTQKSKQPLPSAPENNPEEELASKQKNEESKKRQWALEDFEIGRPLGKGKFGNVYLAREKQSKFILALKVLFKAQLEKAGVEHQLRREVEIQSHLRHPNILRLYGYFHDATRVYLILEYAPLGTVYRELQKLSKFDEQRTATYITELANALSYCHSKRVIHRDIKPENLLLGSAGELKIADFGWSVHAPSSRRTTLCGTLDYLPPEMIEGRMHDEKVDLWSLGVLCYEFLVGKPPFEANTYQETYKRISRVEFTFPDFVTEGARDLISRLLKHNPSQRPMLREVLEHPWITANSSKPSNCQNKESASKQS
STATED CONDITIONS: Compound concentration 20.0 uM
Description: Thermal Shift Assay. Domain: start/stop: E122-S403
Residues, ends and D or L forms follow the SMILES beside them. *: point of attachment. Boc = CC(C)(C)OC(=O)*
State just the number; it will be interpreted in °C.

The following molecules have reported results that may help.
OC[C@H]1O[C@@H](c2ccc(F)c(Cc3cc4ccccc4s3)c2)[C@H](O)[C@@H](O)[C@@H]1O	-1.82
NS(=O)(=O)c1cc(-c2nnn[nH]2)c(NCc2cccs2)cc1Cl	-1.94
CN1CC[C@@H](Oc2ccc(F)c(-c3nc4c(o3)C(=O)c3ccccc3C4=O)c2Cl)C1	-1.95

Task item: So what does the record say about ΔTm for NCCOCCOCCNC(=O)Cc1ccc(Nc2nc(NCc3ccc(F)cc3)nc(NCC3CCCCC3)n2)cc1 ?
Reply: -2.14

Task item: So what does the record say about ΔTm for COCCOCCn1nc2c(c1C)-c1c(Cl)ccc3c1c(C)c(C(=O)O)n3CCCOc1cc(cc3c(F)c(Cl)ccc13)CCc1cc(nn1C)CSC2 ?
Reply: 0.82

Task item: So what does the record say about ΔTm for Cc1cc(OCCCNCC(C)(C)C(N)=O)ccc1Cc1c(O[C@@H]2O[C@H](CO)[C@@H](O)[C@H](O)[C@H]2O)n[nH]c1C(C)C ?
Reply: -2.36

Task item: So what does the record say about ΔTm for CNCCC(Oc1ccccc1OC)c1ccccc1 (stereo not given) ?
Reply: -1.7

Task item: So what does the record say about ΔTm for CC(C)[C@H](NC(=O)[C@H](CCC(=O)O)NC(=O)[C@H](C)NC(=O)OC(C)(C)C)C(=O)N[C@H](C=O)CC(=O)O (Boc-AEVD-aldehyde) ?
Reply: -1.35

Task item: So what does the record say about ΔTm for N#Cc1c(N)[nH]c2cc(/C=C/c3cccc(F)c3)ccc12 ?
Reply: 0.33

Task item: So what does the record say about ΔTm for O=C(NO)c1cnc(NC2(c3ccccc3)CC2)nc1 ?
Reply: -0.41
